Source: the supplement of paper PMC9170038

- System: MS2 coat protein
- RUN DESCRIPTION: apparent KD of MS2 coat protein; designed switch direction (-1 OFF switch, 1 ON switch): -1; higher = weaker reporter binding
- MEASUREMENT SETUP: Eterna round: R95; input ligand: none
ENDPOINT NAME: apparent KD of MS2 coat protein (nM)
Write the value in nM as a bare number.

Hello, please tell me recorded apparent KD of MS2 coat protein for this one: CAGACACAUGAGGAUCACCCAUGUGAGGAUAUGCGUACGUUGUCCGUAGGCGACGUGCGCAGAAGGCGCAUAGG [JL-ex1-3.11 Eli mod] (puzzle: Exclusion 1) 50.1

Name the recorded apparent KD of MS2 coat protein of the item UCAAGUAUGUAGGAUAUGAUGUGAUUGUACAUAUCAGAAGGACGUACAUGAGGAUCACCCAUGUAACUUGCAUG [Exclusion 6 - B - 12:b] (puzzle: Exclusion 6) in your answer. 144

Specify reported apparent KD of MS2 coat protein for the sequence shown: CUGAGCAGACGGAGAUCCAACAUGAGGAUCACCCAUGUCUCAAAAGCUUUUUGCUCAUCUUAUUGUACCUUGGUGCU [JL ViennaUCT Edcesobi mod 2] (puzzle: Sensor v3, turn-off variant 1) 342

----------
- Tested on: K4 kissing-loop RNA reporter
- RUN DESCRIPTION: apparent KD of K4 kissing-loop reporter; higher = weaker reporter binding
- MEASUREMENT SETUP: Eterna round: R107; input ligand: arginine 13.2 mM
ENDPOINT NAME: apparent KD of K4 kissing-loop reporter (nM)
Give the value in nM but do not write nM after it.

State measured apparent KD of K4 kissing-loop reporter of the sequence CCCGUUGCGGCGGCCGCCACUGACUUAUUGAUUAGGUUGCCAGUGAUGUUGGCCACCGGUCAAUACAGGACCGGGCCAUAGCGGG [Ceisreatte] with K4 kissing-loop RNA reporter. 124

For K4 kissing-loop RNA reporter, give the measured apparent KD of K4 kissing-loop reporter of the entry GAGAAUCUAAUUGAUACCAGAGUAAGAACCAGUGAUGUUGGAAGAUUCCCUAAUAAAUAACUCCCUUGGCAGCGGAAGAGAAUAG [Totally accidental 2] 230

// output apparent KD of K4 kissing-loop reporter; input AAUAUCUAGUAUAUUUUUAAUAAAACAGAUACCAGUGAUAAUAGACACCCUUGGCAGCUGGUCGAGUGAUGUUCGUUUAUAUUAA [JR_SSTheophyA_Sub006] ; system K4 kissing-loop RNA reporter 83.6

----------
- Tested on: K4 kissing-loop RNA reporter;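 further: bound reporter read as fluorescence of individual clusters on recovered sequencing chips by microscopy, with normalized cluster intensities fitted with a binding model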
- RUN DESCRIPTION: apparent KD of K4 kissing-loop reporter; higher = weaker reporter binding
- MEASUREMENT SETUP: Eterna round: R107; input ligand: FMN 200 uM
ENDPOINT NAME: apparent KD of K4 kissing-loop reporter (nM)
API: value field is a number in nM; no unit string.

Recall and state the measured apparent KD of K4 kissing-loop reporter for GCCGUACGCAUGGAUACCAGCAAGCAUAGCAGGAAACUGCUAUGCACCAGUGAUGUUGGAUGCCCUUGGCAGCCAUGCGUACGGC . 1250

Supply recorded apparent KD of K4 kissing-loop reporter for CAGAACUUGUAUAUAGGGUAUAUAAGAGAUACCAGUCAAAUUAAAGACCCUUGGCAGCUCAGGCGAGUGAUGUUCGCAGGCUAAC [Exclusion Theophylline A GF 17] here. 112

// Input: UGUACCGAGUGAGGAUAUGUCGUCGAAAGACGAAAUGGAGUGAUGUUCCUUAAACUGCGAAAGCAGACAGAAGGCACUUGGUACU [FmnBS 29 G11+C75] . Output its apparent KD of K4 kissing-loop reporter only. 129

Read the entry GCAGUCAAUCAACCACGAAAGUGGAUGGAUACCAGCCCGAAACCGGGCCCUUGGCAGCCAGUGAUGUUGGAAGACUGCUUUAAAA [#SwitchBubble 15 #K4Late] and write its reported apparent KD of K4 kissing-loop reporter. 974

Return apparent KD of K4 kissing-loop reporter (reported value) for this sequence: GGUGACAACCAGAAGUGAUGUAUAGAAUAGCGAGGACCGGUACGGCCGCCACUCGUGAAGAGAAAGGAGUGAUGUUCCGUAAUGG [Kazoo C4] 250

Provide apparent KD of K4 kissing-loop reporter value for the following sequence: AUUUUUUUGUCAGGAUAUUAGUGUGGGUUUGGUUUGUUAGUGAUGUUGAUAUUUGUUUUAUGUAUUUAAGAAGGGAUUUAGCGGU [zzdxemullin] 556

----------
- Test system: MS2 coat protein
- RUN DESCRIPTION: apparent KD of MS2 coat protein; designed switch direction (-1 OFF switch, 1 ON switch): -1; higher = weaker reporter binding
- MEASUREMENT SETUP: input ligand: FMN 200 uM
Think of 200 nM as a floor: if apparent KD of MS2 coat protein stands on it or above, it is true (1); beneath it, false (0).

API: above_or_equal(metric=apparent KD of MS2 coat protein, cutoff=200 nM) for item AUAAUUAGUUCAGGAUAUCAGCACGUUUAGUGCUGAGAAGGGAACAUGAGGAUCACCCAUGUGAUCAAUAUUAUAAUUUUAAUU [ENG1/12-B2] (Eterna round: R96, puzzle: Exclusion NG 1) true (1)

Form field: apparent KD of MS2 coat protein at least 200 nM? Entry: AAACGGCAGGGAGGAUAUGCUUGCCUGGGUCGUCUUCAGACAUGAGGAUCACCCAUGUAGUCGACGCAGAAGGCCCUCAAAGCC [JL ViennaUCT Ontiis mod 5] (Eterna round: R96, puzzle: Exclusion NG 2) false (0)

State whether the measured apparent KD of MS2 coat protein reaches 200 nM, counting equality as reaching it, for UAUGGGUCUACAGGAUAUUCCAGUAGAUAGAAGGGAGAAGGGUGGGCCUAUACUUGAGGAUCACCCAAGUGAAAAGGGUCAUCC [Mutated MS2 EX1.13] (Eterna round: R96, puzzle: Exclusion NG 1) false (0)

Does GCAUCACAUGUCAGGAUAUGCUGUACCUUGGUACAGCAGAAGGGACAUGAGGAUCACCCAUGUGCCUAUGAUGC [JL-BMX4-4.11] (Eterna round: R97, puzzle: Brourd's mod of Exclusion 4) have a reported apparent KD of MS2 coat protein of at least 200 nM? true (1)

Form field: apparent KD of MS2 coat protein at least 200 nM? Entry: UUAAUGACUGUGAGGAUAUCGGAUAGAUAGAUAUUUGAGAAGGUACAUGAGGAUCACCCAUGUGUGAUUAGAGA [Brourd's EX4 #66] (Eterna round: R97, puzzle: Brourd's mod of Exclusion 4) true (1)

----------
- System: MS2 coat protein
- RUN DESCRIPTION: apparent KD of MS2 coat protein; designed switch direction (-1 OFF switch, 1 ON switch): 1; higher = weaker reporter binding
- MEASUREMENT SETUP: input ligand: none
Please respond with reported apparent KD of MS2 coat protein for every item in the list.
Please reply with the bare figure in nM and do not write the unit itself.

Return reported apparent KD of MS2 coat protein. Input sequence: GGUAGGUUACUACCAACACAUGAGGAUCACCCAUGUUAGUGGGAGGAUAUGGUACCUAUUUGGUACCAGAAGGCCUUGUUAAUU [Fiskers NG3ss - 14] (Eterna round: R96, puzzle: Same State NG 3) 87.6

Provide only the value of recorded apparent KD of MS2 coat protein for GCUCGAAUCAAAACCAACAUGAGGAUCACCCAUGUAUGUUGGUAGGAUAUCGUUUGCUUUGCAAACGAGAAGGACCAAACGAGC [SameState NG3 #2] (Eterna round: R96, puzzle: Same State NG 3) 94.2

Identify apparent KD of MS2 coat protein associated with the sequence AAUUAAGAUCAAGGAUAUCACGUCGAAUAGACGUGAGAAGGUGAUCAUAACAUGAGGAUCACCCAUGUAUUACAUGAAUUAAUU [SSNG1/2-B1] (Eterna round: R96, puzzle: Same State NG 1) 289

Annotate the sequence GGAGCCAAGGCAGGAUAUUCAUAUUAAUUACAUGAGGAUCACCCAUGUUAGGCCAGAAGGCCUUGGGAGAAGGGCCAUGGCUCG [Xeonanis - 13 mod19] (Eterna round: R96, puzzle: Same State NG 2) with its measured apparent KD of MS2 coat protein. 60.6

State its apparent KD of MS2 coat protein: CCGCUCCGUGGAGGAUAUGGGCCUGCCCGGGAUAACGGGCCUAACACAUGAGGAUCACCCAUGUCCCAGAAGGCCGCUGGAGCC [Atxerexebe] (Eterna round: R96, puzzle: Same State NG 2) 113

----------
- System: MS2 coat protein
- RUN DESCRIPTION: apparent KD of MS2 coat protein; designed switch direction (-1 OFF switch, 1 ON switch): 1; higher = weaker reporter binding
- MEASUREMENT SETUP: Eterna round: R95; input ligand: none
Rule: TRUE for apparent KD of MS2 coat protein not less than 0.3 µM, FALSE for anything less.

Please check the record UUGGUGUAGAUACAGGAUAUGUUGAUUGUAACAUGAGGAUCACCCAUGUAUCUAUGAGAUUAAAUGCAGAAGGGUGCACAUCACU [salish99_ss2_r3_090] (puzzle: Same State 2) and state if its apparent KD of MS2 coat protein is at or above 0.3 µM. FALSE

Quick check, apparent KD of MS2 coat protein >= 0.3 µM? AGUCCAGCCUGAGCUGGACAAAAGCAUGUACAUGAGGAUCACCCAUGUCAUGUACAAGCUUUUUGCUCGUCUUAAAG [Mat - hsa-mir-208a - Mod of JL - D23] (puzzle: Sensor for hsa-mir-208a) TRUE

Assess whether reported apparent KD of MS2 coat protein for AUUAAACAUGAGGAUCACCCAUGUCAACAAAGUCGAGGAUAUGGGCAAAUAAAAUAAGAACCAGAAGGCGAAUUAU [salish99_ss1_r3_079] (puzzle: Same State 1) sits at 0.3 µM or higher. TRUE

Say whether GAGAGUGAAGUACAGGAUAUGAGGAGAGGAACAUGAGGAUCACCCAUGUGAAAUAGAGAGAAGAGUCAGAAGGGUAGGGAAGAGA [JR_SS2_Sub004] (puzzle: Same State 2) shows apparent KD of MS2 coat protein of 0.3 µM or more. FALSE

Tell me whether apparent KD of MS2 coat protein is at least 0.3 µM here: CAAGCUUGGGUCGUCCCGCUCGUCUUCAAACAUGAGGAUCACCCAUGUAUACUCUUCACAUCAAUUCUAUCUCUUAA [Ralasoerin] (puzzle: Sensor for hsa-mir-208a) FALSE

Can GGUUUAGUCGAUUGCCGUUGCACUCGAAAACAUGAGGAUCACCCAUGUUUGGGACAAGCUUUGCUCCUCGUCUUUCC [Sous] (puzzle: Sensor for hsa-mir-208a) be said to have apparent KD of MS2 coat protein at or above 0.3 µM? TRUE

Evaluate UCAAGCGAGAGGCUCGUCUUAUGUUUGGUACAUGAGGAUCACCCAUGUUAGGGACGAUUUAGUUAGAUGGAAUGGAG [JR_SHM208A_Sub034] (puzzle: Sensor for hsa-mir-208a) : apparent KD of MS2 coat protein at minimum 0.3 µM? FALSE

Does the sequence AGUCCAGCCUGAGCUGGACAAAAGCAUGUACAUGAGGAUCACCCAUGUUCAUGUACAAGCUUUUUGCUCGUCUAAAG [Mat - hsa-mir-208a - Mod of JL - 66] (puzzle: Sensor for hsa-mir-208a) have recorded apparent KD of MS2 coat protein that is 0.3 µM or more? TRUE

Answer whether apparent KD of MS2 coat protein of AGUCCAGCAAGAGCUGGACAAAAGCAUGUACAUGAGGAUCACCCAUGUUCAUGUACAAGCUUUUUGCUCGUCUUAAA [Mat - hsa-mir-208a - Mod of JL - 57] (puzzle: Sensor for hsa-mir-208a) is greater than or equal to 0.3 µM. TRUE

Confirm if apparent KD of MS2 coat protein reported for the sequence AGUCCAGCCUGAGCUGGACAAAAGCAUGUACAUGAGGAUCACCCAUGUUCAUGUACAAGCUUUUUGCUCGUCGGAAU [Mat - hsa-mir-208a - Mod of JL - 49] (puzzle: Sensor for hsa-mir-208a) is 0.3 µM or above. TRUE
